# measurementTarget: beta-catenin/TCF4 engagement (Homo sapiens)
# Construct: expressed in transfected cells; host or cells: HEK293
# Sequence (P35222 whole entry): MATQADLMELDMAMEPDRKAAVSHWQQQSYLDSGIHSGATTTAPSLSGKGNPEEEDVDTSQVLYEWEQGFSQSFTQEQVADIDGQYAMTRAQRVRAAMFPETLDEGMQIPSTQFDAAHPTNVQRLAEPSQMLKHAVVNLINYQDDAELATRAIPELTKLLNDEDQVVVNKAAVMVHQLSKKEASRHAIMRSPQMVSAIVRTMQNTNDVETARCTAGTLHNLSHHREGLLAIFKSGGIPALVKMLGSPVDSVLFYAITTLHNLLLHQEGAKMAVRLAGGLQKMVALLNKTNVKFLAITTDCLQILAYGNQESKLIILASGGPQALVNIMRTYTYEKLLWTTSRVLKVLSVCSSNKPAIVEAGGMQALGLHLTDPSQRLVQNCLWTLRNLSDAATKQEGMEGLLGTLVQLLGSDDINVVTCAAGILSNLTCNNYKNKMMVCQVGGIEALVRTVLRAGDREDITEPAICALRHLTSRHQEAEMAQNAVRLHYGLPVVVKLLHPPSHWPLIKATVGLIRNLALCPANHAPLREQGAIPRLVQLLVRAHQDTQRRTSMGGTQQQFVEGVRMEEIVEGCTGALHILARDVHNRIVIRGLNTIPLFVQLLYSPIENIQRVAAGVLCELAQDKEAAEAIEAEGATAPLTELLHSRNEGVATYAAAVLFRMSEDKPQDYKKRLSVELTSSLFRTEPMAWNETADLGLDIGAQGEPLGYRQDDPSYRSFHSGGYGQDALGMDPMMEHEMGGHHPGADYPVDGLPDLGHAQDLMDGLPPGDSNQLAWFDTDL
# protocol: Nano-BRET target engagement assay (B-cat-Halo & TCF4-Luc in HEK293 cells)
# Assay type: cell-based
# assayConditions: read-out: NanoBRET Abs IC50
measuredMetric: IC50
Give your result as the value with the unit written after it.

Give the reported value of IC50 for this record: CC(=O)N1CCC[C@]12CC=CCCCC1(CCCC=CCCCOC(=O)N3CC[C@@](C(=O)N[C@@H](Cc4ccsc4)C(=O)N[C@@H](Cc4csc5ccccc45)C(=O)N[C@@H](CCC(N)=O)C(N)=O)(C3)NC(=O)[C@H](CCC(=O)N3CCNCC3)NC(=O)[C@H](Cc3ccccc3)NC(=O)[C@H](C)NC(=O)[C@H](C)NC(=O)[C@H](CN(CC(=O)O)CC(F)(F)F)NC(=O)[C@H](CC(=O)O)NC1=O)NC(=O)[C@H](CC(C)(C)C)NC(=O)[C@H](CC(=O)O)NC2=O (stereo partly shown)
12.9 µM

---

Can you tell me Solubility for the items I'm about to list?
# protocol: Solubility in PBS
# Assay type: physicochemical
Please respond with the number in µM and leave the unit unwritten.

Give the reported value of Solubility for this record: CC(=O)N1CCC[C@]12CC=CCCCC1(CCCC=CCCCCCC[C@@](C)(C(=O)N[C@@H](Cc3ccccc3)C(=O)N[C@@H](Cc3csc4ccccc34)C(=O)N[C@@H](Cc3c[nH]cn3)C(N)=O)NC(=O)[C@H](CC(N)=O)NC(=O)[C@H](Cc3ccccc3)NC(=O)[C@H](C)NC(=O)[C@H](C)NC(=O)[C@H](CC(=O)O)NC(=O)[C@H](CC(=O)O)NC1=O)NC(=O)[C@H](CC(C)C)NC(=O)[C@H](CC(=O)O)NC2=O (some centres unmarked) [I-565]
26

Give the reported value of Solubility for this record: CCN(CC(=O)O)C[C@@H]1NC(=O)[C@H](CC(=O)O)NC(=O)C2(CCCC=CCCCOC(=O)N3CC[C@@](C(=O)N[C@@H](Cc4ccsc4)C(=O)N[C@@H](Cc4csc5ccccc45)C(=O)N[C@@H](CCC(N)=O)C(N)=O)(C3)NC(=O)[C@H](CC(C)C)NC(=O)[C@H](Cc3ccccc3)NC(=O)[C@H](C)NC(=O)[C@H](C)NC1=O)CCCC=CC[C@]1(CCCN1C(C)=O)C(=O)N[C@@H](CC(=O)O)C(=O)N[C@@H](CC(C)(C)C)C(=O)N2 (some centres unmarked) [I-972]
30

Give the reported value of Solubility for this record: CC[C@@H]1NC(=O)[C@H](CC(=O)O)NC(=O)[C@]2(CC=CCCCC3(CCCC=CCCCCCC[C@@](C)(C(=O)N[C@@H](Cc4ccccc4)C(=O)N[C@@H](Cc4csc5ccccc45)C(=O)N[C@@H](Cc4c[nH]cn4)C(N)=O)NC(=O)[C@H](CC(N)=O)NC(=O)[C@H](Cc4ccccc4)NC(=O)[C@H](C)NC(=O)[C@H](C)NC(=O)[C@H](CC(=O)O)NC(=O)[C@H](CC(=O)O)NC3=O)NC1=O)CCCN2C(C)=O (some centres unmarked) [I-575]
46

Give the reported value of Solubility for this record: CC(C)C[C@@H]1NC(=O)[C@H](Cc2ccccc2)NC(=O)[C@H](C)NC(=O)[C@H](C)NC(=O)[C@H](CC(=O)O)NC(=O)[C@H](CC(=O)O)NC(=O)C2(CCCC=CCCCOC(=O)N3CC[C@@](C(=O)N[C@@H](Cc4ccccc4)C(=O)N[C@@H](Cc4csc5ccccc45)C(=O)N[C@@H](CCC(N)=O)C(N)=O)(C3)NC1=O)CCCC=CC[C@]1(CCCN1C(=O)CCCN(C)C)C(=O)N[C@@H](CC(=O)O)C(=O)N[C@@H](CC(C)(C)C)C(=O)N2 (some centres unmarked) [I-1358]
10

Give the reported value of Solubility for this record: CC(=O)N1CCC[C@]12CC=CCCCC1(CCCC=CCCCOC(=O)N3CC[C@@](C(=O)N[C@@H](Cc4ccccc4)C(=O)N[C@@H](Cc4csc5ccccc45)C(=O)N[C@@H](CCC(N)=O)C(N)=O)(C3)NC(=O)[C@H](CC(C)C)NC(=O)[C@H](Cc3ccccc3)NC(=O)[C@H](C)NC(=O)[C@H](CCCCNC(C)C)NC(=O)[C@H]([C@@H](C)O)NC(=O)[C@H](CC(N)=O)NC1=O)NC(=O)[C@H](C)NC(=O)[C@H](CC(=O)O)NC2=O (some centres unmarked)
10
